Ref: patent US11730723B2

test details: in vitro
assay setup: African green monkey
measure name: CC50 (µM)

1) CC(C)C[C@](C)(N)COc1ccc(-c2ccnc(C(F)F)c2)nc1C(F)F; 37

----------
test details: Cytotoxicity in HepG2 2.2.15 cells (MTS)
Type: cell-based
assay setup: human, same assay plate
measure name: CC50

1. C=C1[C@H](CO)[C@@H](O)C[C@@H]1n1cnc2c(=O)[nH]c(N)nc21; > 1 µM
2. Nc1ccn([C@@H]2CS[C@H](CO)O2)c(=O)n1; > 2 µM
3. CC(C)C[C@](C)(N)COc1ccc(-c2ccnc(C(F)F)c2)nc1C(F)F; 29.3 µM

----------
Test system: dengue virus (DENV) serotype 2 strain D2S221
test details: Dengue virus D2S221 inhibition assay in Vero cells (immunostaining)
assay setup: read-out: D2S221 IC50
Let's look at some compounds and their measured IC50.
measure name: IC50 (µM)

1) CC(C)C[C@](C)(N)COc1ccc(-c2ccnc(C(F)F)c2)nc1C(F)F; 6.66
2) NC(=O)c1ncn([C@@H]2O[C@H](CO)[C@@H](O)[C@H]2O)n1; 71.1
3) CCN(CC)CCNC(=O)c1c(C)[nH]c(/C=C2\C(=O)Nc3ccc(F)cc32)c1C; 4.06
4) CCN(CC)CCCC(C)Nc1ccnc2cc(Cl)ccc12 (stereo not shown) [Chloroquine diphosphate]; 23.7
